Target: Sodium channel protein type 5 subunit alpha (Homo sapiens)
Experiment: Inhibition of human Nav1.5 channel expressed in HEK293 cells assessed as blockade of veratridine-induced late inward sodium current elicited at -30 mV from holding potential -110 mV at 10 uM by patch clamp method
Assay type: cell-based
Our labelling divides records by inhibition at 10 µM into ranges: low value: < 20%; medium value: ≥ 20% and < 40%; high value: ≥ 40%

{"columns": ["smiles_record", "cat"],
 "data": [
  ["C[C@@H](CN[C@@H]1COc2ccccc2SC1)CSc1cccc(F)c1O", "medium value"],
  ["COc1cccc(SC[C@@H](C)CN[C@@H]2COc3ccccc3SC2)c1N", "low value"],
  ["C[C@@H](CN[C@@H]1COc2ccccc2SC1)CSc1cccc(C(N)=O)c1O", "high value"],
  ["C[C@@H](CN[C@@H]1COc2ccccc2SC1)CSc1cccc2ncoc12", "low value"],
  ["COc1c(C)cccc1SC[C@@H](C)CN[C@@H]1COc2ccccc2SC1", "medium value"]
]}

Now for another entry.
# classify by inhibition at 10 µM band: COc1cccc(SC[C@@H](C)CN[C@@H]2COc3ccccc3SC2)c1O
medium value

---

Biological target: Sodium channel protein type 5 subunit alpha (Homo sapiens, UniProt Q14524)
Sequence (Q14524 whole entry): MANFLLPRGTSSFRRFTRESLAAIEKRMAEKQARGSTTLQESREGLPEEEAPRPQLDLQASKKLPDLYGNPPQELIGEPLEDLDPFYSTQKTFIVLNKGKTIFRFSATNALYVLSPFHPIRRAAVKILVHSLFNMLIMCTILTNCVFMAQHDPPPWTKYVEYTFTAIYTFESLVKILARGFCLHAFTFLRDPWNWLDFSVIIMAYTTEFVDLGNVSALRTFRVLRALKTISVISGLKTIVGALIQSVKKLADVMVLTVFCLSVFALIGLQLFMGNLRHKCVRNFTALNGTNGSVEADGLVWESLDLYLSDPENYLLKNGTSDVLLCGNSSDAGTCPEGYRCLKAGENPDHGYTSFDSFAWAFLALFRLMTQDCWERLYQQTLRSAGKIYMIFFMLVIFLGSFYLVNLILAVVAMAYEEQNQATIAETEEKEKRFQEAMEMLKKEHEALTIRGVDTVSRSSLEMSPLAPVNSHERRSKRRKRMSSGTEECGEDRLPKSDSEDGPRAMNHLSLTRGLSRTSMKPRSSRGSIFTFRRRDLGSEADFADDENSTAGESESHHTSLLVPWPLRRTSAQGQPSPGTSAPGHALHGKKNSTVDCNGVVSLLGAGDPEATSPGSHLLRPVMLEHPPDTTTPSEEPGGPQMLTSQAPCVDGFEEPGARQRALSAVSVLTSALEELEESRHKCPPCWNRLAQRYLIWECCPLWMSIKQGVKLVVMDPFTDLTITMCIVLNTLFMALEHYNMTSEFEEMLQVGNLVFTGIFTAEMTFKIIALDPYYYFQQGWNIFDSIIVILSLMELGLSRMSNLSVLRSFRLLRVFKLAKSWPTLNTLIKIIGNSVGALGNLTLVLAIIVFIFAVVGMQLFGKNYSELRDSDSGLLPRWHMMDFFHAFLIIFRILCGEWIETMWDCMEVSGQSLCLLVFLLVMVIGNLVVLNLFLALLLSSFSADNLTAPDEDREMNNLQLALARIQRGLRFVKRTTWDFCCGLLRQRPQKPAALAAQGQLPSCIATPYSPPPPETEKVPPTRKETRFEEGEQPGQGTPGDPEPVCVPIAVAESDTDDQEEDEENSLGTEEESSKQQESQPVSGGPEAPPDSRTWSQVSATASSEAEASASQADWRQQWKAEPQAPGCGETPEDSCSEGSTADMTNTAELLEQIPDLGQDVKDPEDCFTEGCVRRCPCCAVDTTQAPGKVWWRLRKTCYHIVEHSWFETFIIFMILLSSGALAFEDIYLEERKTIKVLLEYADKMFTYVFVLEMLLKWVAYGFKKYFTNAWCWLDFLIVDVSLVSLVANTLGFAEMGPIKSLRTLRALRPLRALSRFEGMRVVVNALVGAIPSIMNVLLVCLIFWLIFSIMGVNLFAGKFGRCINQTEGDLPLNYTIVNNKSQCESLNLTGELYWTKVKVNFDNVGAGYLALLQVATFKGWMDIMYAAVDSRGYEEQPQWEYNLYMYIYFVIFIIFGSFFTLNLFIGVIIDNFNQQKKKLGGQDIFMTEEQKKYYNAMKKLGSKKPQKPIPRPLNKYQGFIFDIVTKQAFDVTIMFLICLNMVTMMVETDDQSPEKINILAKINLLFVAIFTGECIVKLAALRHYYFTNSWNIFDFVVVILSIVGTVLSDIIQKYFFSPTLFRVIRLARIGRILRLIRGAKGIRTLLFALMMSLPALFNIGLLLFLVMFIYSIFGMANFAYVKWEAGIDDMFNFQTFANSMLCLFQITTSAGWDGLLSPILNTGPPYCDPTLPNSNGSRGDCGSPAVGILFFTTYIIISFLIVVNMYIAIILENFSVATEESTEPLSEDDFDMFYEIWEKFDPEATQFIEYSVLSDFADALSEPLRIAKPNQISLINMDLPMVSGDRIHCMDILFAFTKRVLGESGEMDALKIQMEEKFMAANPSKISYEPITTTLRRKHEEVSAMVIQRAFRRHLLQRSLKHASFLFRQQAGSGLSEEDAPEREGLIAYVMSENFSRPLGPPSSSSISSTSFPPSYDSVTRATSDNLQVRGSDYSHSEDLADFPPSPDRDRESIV
Experiment: Inhibition of human Nav1.5 channel expressed in HEK293 cells assessed as blockade of veratridine-induced late inward sodium current elicited at -30 mV from holding potential -90 mV at 10 uM by patch clamp method
Type: cell-based
As shown below, each of these compounds has a reported inhibition at 10 µM value.
Express your answer in %, writing the number without its unit.

{"columns": ["smiles_record", "inhibition at 10 µM, %"],
 "data": [
  ["CC(C)c1cccc(SC[C@@H](C)CN[C@@H]2COc3ccccc3SC2)c1O", 46],
  ["C[C@@H](CN[C@@H]1COc2ccccc2SC1)CSc1cccc(C(N)=O)c1O", 65],
  ["C[C@@H](CN[C@@H]1COc2ccccc2SC1)CSc1cccc2c1OCC2", 56],
  ["C[C@@H](CN[C@@H]1COc2ccccc2SC1)CSc1cccc2cn[nH]c12", 44],
  ["C[C@@H](CN[C@@H]1COc2ccccc2SC1)CSc1cccc2ncoc12", 26],
  ["C[C@@H](CN[C@@H]1COc2ccccc2SC1)CSc1cccc2ccoc12", 82]
]}

For record Cc1ccccc1SC[C@@H](C)CN[C@@H]1COc2ccccc2SC1 the listed inhibition at 10 µM is 14

Form: compound = Cc1cccc(SC[C@@H](C)CN[C@@H]2COc3ccccc3SC2)c1N ; inhibition at 10 µM = 26

Summary for this compound, COc1cccc(SC[C@@H](C)CN[C@@H]2COc3ccccc3SC2)c1O : inhibition at 10 µM is 46

Form: compound = C[C@@H](CN[C@@H]1COc2ccccc2SC1)CSc1cccc2cc[nH]c12 ; inhibition at 10 µM = 8

Value of inhibition at 10 µM reported for the compound CCc1cccc(SC[C@@H](C)CN[C@@H]2COc3ccccc3SC2)c1O is 56

So for C[C@@H](CN[C@@H]1COc2ccccc2SC1)CSc1cccc(F)c1O , the logged inhibition at 10 µM turned out to be 40

---

Entries annotated with measured inhibition at 10 µM
Target: Sodium channel protein type 5 subunit alpha (Homo sapiens, UniProt Q14524)
Test: Inhibition of human Nav1.5 channel expressed in HEK293 cells assessed as blockade of veratridine-induced late inward sodium current elicited at -30 mV from holding potential -110 mV at 10 uM by patch clamp method
Type: cell-based
Supply the numeric figure in %, leaving out any unit text.

{"columns": ["smiles_record", "assayed_target", "inhibition at 10 µM, %"],
 "data": [
  ["C[C@@H](CN[C@@H]1COc2ccccc2SC1)CSc1cccc2c1OCC2", "Sodium channel protein type 5 subunit alpha (Homo sapiens, UniProt Q14524)", 47],
  ["C[C@@H](CN[C@@H]1COc2ccccc2SC1)CSc1cccc2ccoc12", "Sodium channel protein type 5 subunit alpha (Homo sapiens, UniProt Q14524)", 73],
  ["CC(C)c1cccc(SC[C@@H](C)CN[C@@H]2COc3ccccc3SC2)c1O", "Sodium channel protein type 5 subunit alpha (Homo sapiens, UniProt Q14524)", 38],
  ["CCc1cccc(SC[C@@H](C)CN[C@@H]2COc3ccccc3SC2)c1O", "Sodium channel protein type 5 subunit alpha (Homo sapiens, UniProt Q14524)", 56],
  ["Cc1cccc(SC[C@@H](C)CN[C@@H]2COc3ccccc3SC2)c1N", "Sodium channel protein type 5 subunit alpha (Homo sapiens, UniProt Q14524)", 26],
  ["C[C@@H](CN[C@@H]1COc2ccccc2SC1)CSc1cccc2cn[nH]c12", "Sodium channel protein type 5 subunit alpha (Homo sapiens, UniProt Q14524)", 34]
]}

The recorded inhibition at 10 µM for C[C@@H](CN[C@@H]1COc2ccccc2SC1)CSc1cccc(F)c1N is 11

The measured inhibition at 10 µM associated with Cc1cccc(SC[C@@H](C)CN[C@@H]2COc3ccccc3SC2)c1O reads 73

get_value(item= C[C@@H](CN[C@@H]1COc2ccccc2SC1)CSc1cccc2cc[nH]c12 , readout=inhibition at 10 µM) returns 8

CCOc1ccccc1SC[C@@H](C)CN[C@@H]1COc2ccccc2SC1 has a reported inhibition at 10 µM of 41

---

Target: Sodium channel protein type 5 subunit alpha (Homo sapiens, UniProt Q14524)
Assay: Inhibition of human Nav1.5 channel expressed in HEK293 cells assessed as blockade of veratridine-induced late inward sodium current elicited at -30 mV from holding potential -90 mV at 10 uM by patch clamp method
Format: cell-based
Form field: inhibition at 10 µM (one value per entry).
Quick reminder: number only, in %, skip the unit.

{"columns": ["smiles_record", "numeric_value"],
 "data": [
  ["CCOc1ccccc1SC[C@@H](C)CN[C@@H]1COc2ccccc2SC1", 54],
  ["COc1cccc(SC[C@@H](C)CN[C@@H]2COc3ccccc3SC2)c1N", 18],
  ["COc1c(C)cccc1SC[C@@H](C)CN[C@@H]1COc2ccccc2SC1", 32],
  ["Cc1cccc(SC[C@@H](C)CN[C@@H]2COc3ccccc3SC2)c1O", 87]
]}

Short answer for Cc1cccc(SC[C@@H](C)CN[C@@H]2COc3ccccc3SC2)c1CO : inhibition at 10 µM was 58

---

Target: Sodium channel protein type 5 subunit alpha (Homo sapiens, UniProt Q14524)
Assay: Inhibition of human Nav1.5 channel expressed in HEK293 cells assessed as blockade of veratridine-induced late inward sodium current elicited at -30 mV from holding potential -110 mV at 10 uM by patch clamp method
Type: cell-based
outcome_measure: inhibition at 10 µM (%)
Supply the numeric figure in %, leaving out any unit text.

Example entries and their recorded answers appear below.
{"columns": ["smiles_record", "assayed_target", "inhibition at 10 µM / %"],
 "data": [
  ["Cc1ccccc1SC[C@@H](C)CN[C@@H]1COc2ccccc2SC1", "Sodium channel protein type 5 subunit alpha (Homo sapiens, UniProt Q14524)", 11],
  ["C[C@@H](CN[C@@H]1COc2ccccc2SC1)CSc1cccc2c1OCO2", "Sodium channel protein type 5 subunit alpha (Homo sapiens, UniProt Q14524)", 32],
  ["C[C@@H](CN[C@@H]1COc2ccccc2SC1)CSc1cccc(N)c1O", "Sodium channel protein type 5 subunit alpha (Homo sapiens, UniProt Q14524)", 11]
]}

Cc1cccc(SC[C@@H](C)CN[C@@H]2COc3ccccc3SC2)c1CO yielded inhibition at 10 µM of 45

---

Target: Sodium channel protein type 5 subunit alpha (Homo sapiens, UniProt Q14524)
Assay: Inhibition of human Nav1.5 channel expressed in HEK293 cells assessed as blockade of veratridine-induced late inward sodium current elicited at -30 mV from holding potential -90 mV at 10 uM by patch clamp method
Format: cell-based
outcome_measure: inhibition at 10 µM (%)
Entry rule: numbers only, all in %.

{"columns": ["smiles_record", "numeric_value"],
 "data": [
  ["C[C@@H](CN[C@@H]1COc2ccccc2SC1)CSc1cccc(F)c1N", 19],
  ["C[C@@H](CN[C@@H]1COc2ccccc2SC1)CSc1cccc2c1OCO2", 54]
]}

--- query ---
inhibition at 10 µM measured on C[C@@H](CN[C@@H]1COc2ccccc2SC1)CSc1cccc(N)c1O = 19
